Test system: green peach aphid (Myzus persicae)
run description: Myzus persicae test (MYZUPE), ammonium salts in combination with penetration enhancers (Example C)
Format: in vivo
setup conditions: Table C1; active substance 20 ppm + ammonium sulfate 1000 ppm
measurement kind: Kill rate/% after 6 days, +AS (1000 ppm) (%)
Supply the numeric figure in %, leaving out any unit text.

As a guide, the following entries are already answered.
compound_string=C=CCNS(=O)(=O)c1cccc(OC)c1C#N observed_value=70
compound_string=C#CCNS(=O)(=O)c1cccc(OC)c1C#N observed_value=20
compound_string=C#CCN1C(=N)c2c(OC)cccc2S1(=O)=O observed_value=45

Please look at the following molecule next.
INPUT: Kill rate/% after 6 days, +AS (1000 ppm) lookup needed for `N#Cc1ccccc1S(N)(=O)=O` , thanks.
OUTPUT: 10
